assay: Drug repurposing screens with cells derived from glioblastoma tumor samples (AID 1345199); conditions: GBM patient neurospheres viability, ATP luminescence, 48 h; at 45.9 µM (top of the series); tumour line B; further: on the % scale 0 is the no-effect control and ±100 the full control effect
Records with an inconclusive call do not appear.
Mark each entry label 1 if its activity, negative = cell killing sits below -10%, and label 0 for all others.

Please review the entries below; each comes with its answer.
- compound: "O=c1[nH]c(=O)n(C2CCCO2)cc1F (stereo unspecified)"
  answer-label: "label 0"
- compound: "CC1(C)O[C@@H]2C[C@@H]3[C@H]4C[C@@H](F)C5=CC(=O)C=C[C@]5(C)[C@@]4(F)[C@@H](O)C[C@]3(C)[C@]2(C(=O)CO)O1"
  answer-label: "label 0"
- compound: "CC=CC1=C(C(=O)O)N2C(=O)[C@H](NC(=O)[C@H](N)c3ccc(O)cc3)[C@@H]2SC1"
  answer-label: "label 1"
- compound: "COc1cc(C(=O)NS(=O)(=O)c2ccccc2C)ccc1Cc1cn(C)c2ccc(NC(=O)OC3CCCC3)cc12"
  answer-label: "label 1"
- compound: "COC(=O)C1=C(C)NC(C)=C(C(=O)OCCN2CCN(C(c3ccccc3)c3ccccc3)CC2)C1c1cccc([N+](=O)[O-])c1 (stereo unspecified)"
  answer-label: "label 1"

A record lists `Nc1ccn([C@@H]2CS[C@H](CO)O2)c(=O)n1` . Is its activity, negative = cell killing below -10%?
label 0
